// provenance: patent US11040031B2

# assay target: full-length MALT1 protein (Strep-MALT1(1-824)-His) (Homo sapiens)
Field: label. Allowed values: TRUE (IC50 < 200 nM) or FALSE (IC50 >= 200 nM).

molecule	assigned class
CC(C)c1ccccc1-n1ncc(C(=O)Nc2cnc(-n3nccn3)c(Cl)c2)c1C(F)(F)F	FALSE
Cc1cnc(Cl)cc1-n1ncc(C(=O)Nc2cnc(-n3nccn3)c(Cl)c2)c1C(F)(F)F	FALSE
Cc1cnc([C@@H]2CCCO2)cc1-n1ncc(C(=O)Nc2cnc(-n3nccn3)c(Cl)c2)c1C(F)(F)F (single isomer, unassigned)	FALSE
N#Cc1cc(NC(=O)c2cnn(-c3cccc4c3OCCO4)c2C(F)(F)F)cnc1-n1nccn1	TRUE
Cc1cc(N)nc(-n2ncc(C(=O)Nc3cnc(-n4nccn4)c(C#N)c3)c2C(F)(F)F)c1	TRUE
Cc1ccnc(-n2ncc(C(=O)Nc3cnc(-n4nccn4)c(C#N)c3)c2C(F)(F)F)c1Cl	FALSE
Cc1cc(F)ccc1-n1ncc(C(=O)Nc2cnc(-n3nccn3)c(C#N)c2)c1C(F)(F)F	TRUE
Cc1c(F)ccc(-n2ncc(C(=O)Nc3cnc(-n4nccn4)c(C#N)c3)c2C(F)(F)F)c1Cl	FALSE
O=C(Nc1cnc(-n2nccn2)c(Cl)c1)c1cnn(-c2cccc(F)c2Cl)c1C(F)(F)F	TRUE
Cc1cnc(N)cc1-n1ncc(C(=O)Nc2cnc(-n3nccn3)c(C#N)c2)c1C(F)(F)F	TRUE
O=C(Nc1cnc(-n2nccn2)c(Cl)c1)c1cnn(-c2ccccc2)c1C(F)(F)F	FALSE
Cc1cccc(F)c1-n1ncc(C(=O)Nc2cnc(-n3nccn3)c(C#N)c2)c1C(F)(F)F	TRUE
Cc1c[n+]([O-])ccc1-n1ncc(C(=O)Nc2cnc(-n3nccn3)c(Cl)c2)c1C(F)(F)F	FALSE
CS(=O)(=O)c1ccccc1-n1ncc(C(=O)Nc2cnc(-n3nccn3)c(Cl)c2)c1C(F)(F)F	FALSE
Cc1cc(F)ccc1-n1ncc(C(=O)Nc2cc(Cl)c(-n3nccn3)nc2C)c1C(F)(F)F	TRUE
O=C(Nc1cnc(-n2nccn2)c(Cl)c1)c1cnn(-c2ncccn2)c1C(F)(F)F	FALSE
Nc1ccnc(-n2ncc(C(=O)Nc3cnc(-n4nccn4)c(Cl)c3)c2C(F)(F)F)c1Cl	FALSE

* * *

# assay target: full-length MALT1 protein (Strep-MALT1(1-824)-His) (Homo sapiens, UniProt Q9UDY8);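 also: fluorogenic LRSR-AMC substrate cleavage by MALT1, 50 min compound preincubation then 4 h reaction at RT, 11-point dilution from 30 µM, scaled between enzyme-free and untreated enzyme controls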
# Sequence (Q9UDY8 1-824): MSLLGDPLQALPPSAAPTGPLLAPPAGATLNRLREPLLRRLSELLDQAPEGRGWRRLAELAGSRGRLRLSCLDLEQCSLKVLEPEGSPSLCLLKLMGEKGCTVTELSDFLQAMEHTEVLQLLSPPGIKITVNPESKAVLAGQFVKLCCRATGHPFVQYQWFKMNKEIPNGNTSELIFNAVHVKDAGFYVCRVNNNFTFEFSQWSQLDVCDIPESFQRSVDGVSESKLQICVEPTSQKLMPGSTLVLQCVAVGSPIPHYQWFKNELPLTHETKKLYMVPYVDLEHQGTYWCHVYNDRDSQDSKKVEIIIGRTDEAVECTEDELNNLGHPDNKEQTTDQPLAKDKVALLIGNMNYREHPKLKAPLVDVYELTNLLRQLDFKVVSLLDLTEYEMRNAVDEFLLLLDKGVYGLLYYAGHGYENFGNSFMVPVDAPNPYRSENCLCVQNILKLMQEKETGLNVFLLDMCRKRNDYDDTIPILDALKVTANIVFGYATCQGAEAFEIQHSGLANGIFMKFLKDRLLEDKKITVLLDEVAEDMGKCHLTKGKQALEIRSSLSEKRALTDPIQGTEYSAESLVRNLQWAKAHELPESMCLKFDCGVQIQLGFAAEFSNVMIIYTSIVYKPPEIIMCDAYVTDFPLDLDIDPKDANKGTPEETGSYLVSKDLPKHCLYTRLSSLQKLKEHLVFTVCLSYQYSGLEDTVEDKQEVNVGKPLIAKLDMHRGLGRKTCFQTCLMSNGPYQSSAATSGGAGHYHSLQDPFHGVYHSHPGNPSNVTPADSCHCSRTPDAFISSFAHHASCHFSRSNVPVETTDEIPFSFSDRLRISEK
pIC50: −log10 of the molar value.

molecule	pIC50
N#Cc1cc(NC(=O)c2cnn(-c3ccc(F)c(Cl)c3)c2C(F)(F)F)cnc1-n1nccn1 [Cpd 109]	6.37
N#Cc1cc(NC(=O)c2cnn(-c3ccncc3Cl)c2C(F)(F)F)cnc1-n1nccn1 [Cpd 45]	7.06
Cc1nccc(-n2ncc(C(=O)Nc3cnc(-n4nccn4)c(C#N)c3)c2C(F)(F)F)c1C#N [Cpd 33]	6.29
O=C(Nc1cnc(-n2nccn2)c(Cl)c1)c1cnn(-c2nc(Cl)ccc2C(F)(F)F)c1C(F)(F)F [Cpd 165]	5.64
O=C(Nc1cnc(-n2nccn2)c(Cl)c1)c1cnn(-c2ccc(F)cc2Cl)c1C(F)(F)F [Cpd 107]	6.85
N#Cc1cc(-n2ncc(C(=O)Nc3cnc(-n4nccn4)c(C#N)c3)c2C(F)(F)F)ccc1F [Cpd 86]	5.81
Cc1cnc([C@H]2CCCO2)cc1-n1ncc(C(=O)Nc2cnc(-n3nccn3)c(Cl)c2)c1C(F)(F)F (single isomer, unassigned) [Cpd 203]	6.80
